Assay: SPR (Biacore) Protein A mAb capture, Compound A injected
Settings: 37° C., binding to Compound A, apparent affinity, for rank ordering only, read-out: KD
Quantity Name: pKd
Please express pKd as -log10 of the molar concentration.

Give the measured pKd for 26D5-295-C07-mAb: human IgG1f/kappa mAb; VH SEQ ID NO: 67, VL SEQ ID NO: 88 (antibody, V domains shown) VH: EVQLVESGGGLIQPGGSLRLSCAASGFTVSSNAMSWVRQAPGKGLEWVSFIYSGGRTYYADSVKGRFTISRDNSKNTLYLQMNSLRAEDTAVYYCARGGFGGGDYWGQGTLVTVSS VL: DIQMTQSPSSVSASVGDRVTITCRASQGISSNLAWYQQKPGKAPKLLIYAASSLQSGVPSRFSGSGSGTDFTLTISSLQPEDFATYYCQQANSFPLTFGGGTKVEIK
8.80
